Value source: patent US7279500B2

Let's look at some molecules and their measured GTPγS stimulation (1 μM).
target: CB1 receptor (Rattus norvegicus); experiment: GTPγS binding in rat brain membranes, compound alone (inverse agonism); type: biochemical; design: from tissue; host or cells: rat brain membranes; details: rat brain membranes, 1 μM
Sequence (P20272 whole entry): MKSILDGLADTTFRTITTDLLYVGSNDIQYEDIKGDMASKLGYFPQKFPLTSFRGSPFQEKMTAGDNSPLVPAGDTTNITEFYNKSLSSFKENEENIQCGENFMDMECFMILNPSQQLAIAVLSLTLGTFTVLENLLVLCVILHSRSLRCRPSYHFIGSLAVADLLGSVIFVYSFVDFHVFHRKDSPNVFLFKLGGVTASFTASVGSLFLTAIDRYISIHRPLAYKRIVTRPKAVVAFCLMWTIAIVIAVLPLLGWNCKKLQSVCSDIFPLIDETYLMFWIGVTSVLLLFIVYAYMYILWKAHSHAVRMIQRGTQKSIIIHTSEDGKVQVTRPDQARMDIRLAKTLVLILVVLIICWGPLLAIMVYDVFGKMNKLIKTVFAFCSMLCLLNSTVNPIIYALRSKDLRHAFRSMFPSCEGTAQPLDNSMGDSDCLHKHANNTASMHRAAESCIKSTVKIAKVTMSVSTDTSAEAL
// note: answer is a bare numeric in %

[
  {
    "Molecule": "CC1=CCC2C(C1)c1c(O)cc(CC#CCCCNS(C)(=O)=O)cc1OC2(C)C (stereo not shown)",
    "GTPγS stimulation (1 μM) (%)": 11
  }
]

Ask | # assay system CB1 receptor (Rattus norvegicus): give GTPγS stimulation (1 μM) of CCCCS(=O)(=O)NCCCC#CCc1cc(O)c2c(c1)OC(C)(C)C1CC=C(C)CC21 (stereo not shown)
Reply | 30

Ask | # assay system CB1 receptor (Rattus norvegicus): give GTPγS stimulation (1 μM) of CCS(=O)(=O)NCCCC#CCc1cc(O)c2c(c1)OC(C)(C)C1CC=C(C)CC21 (stereo not shown)
Reply | 29

Ask | # assay system CB1 receptor (Rattus norvegicus): give GTPγS stimulation (1 μM) of CCCCCc1cc(O)c2c(c1)OC(C)(C)[C@@H]1CCC(C)=C[C@@H]21 [THC, reference compound]
Reply | 15
